Test: chemical genetic growth profiling, strain panel (AID 1159580);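 further: tested at 20 µM; growth read once vehicle control cultures reached saturation at 30 °C; 1 = growth at the plate median or of vehicle wells; lower values mean less growth of the strain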
Conditions: S. cerevisiae deletion strains, growth OD, locus YLR039C, strain RIC1, active compounds read low
The whole screen tested about 5,500 compounds, of which about 2,000 (36%) were called active. Another 18% or so got no clear call; they are omitted. The list shows a part of the results.
Hi! Just check whether normalized growth is below 1. Below gives yes (1), equal or above gives no (0).

Qu. Hello, I'm reviewing records and need to know if normalized growth of `Cc1nc(-c2nnc(Sc3ccc(C(F)(F)F)cc3[N+](=O)[O-])n2C)cs1` is below 1. Could you check?
Ans. yes (1)

Next:
Qu. Hello, I'm reviewing records and need to know if normalized growth of `Cc1cc(OCOc2ccc(Cl)c(C)c2)ccc1Cl` is below 1. Could you check?
Ans. no (0)

Qu. Cool, now `Cc1noc(C)c1-c1nc(-c2cc(C(F)(F)F)cc(C(F)(F)F)c2)no1`
Ans. no (0)

Qu. Cool, now `O=C(O)/C=C/C(=O)Nc1ccc(-n2nc(C(F)(F)F)cc2C(F)(F)F)cc1`
Ans. no (0)

---

Experiment: chemical genetic growth profiling, strain panel (AID 1159580)
Conditions: S. cerevisiae deletion strains, growth OD, locus YDL017W, strain CDC7, active compounds read low
The whole screen tested about 5,500 compounds, of which about 2,000 (36%) were called active. About 18% were inconclusive and are not listed. The list shows a part of the results.
Measured attribute: normalized growth
Answer field: number only, no words.

Sample records with normalized growth:
Qu. For the compound shown here, `Cc1nc(-c2ccccn2)nc(SCc2ccccc2)c1Cl` , give the reported normalized growth.
Ans. 0.949

Qu. Cool, now `O=C(NCCc1ccncc1)c1ccc(Cl)c(Cl)c1`
Ans. 0.991

Qu. Cool, now `Cc1nc(-c2ccccn2)[nH]c(=O)c1Cc1c(Cl)cccc1Cl`
Ans. 0.961

Next:
Qu. For the compound shown here, `COc1ccc2nc3ccccc3c(N)c2c1` , give the reported normalized growth.
Ans. 0.636

Qu. Cool, now `N#Cc1c2ccccc2nc2ccccc12`
Ans. 0.834

---

// reported normalized growth per item
Assay: chemical genetic growth profiling, strain panel (AID 1159580)
Details: S. cerevisiae deletion strains, growth OD, locus YNL298W, strain CLA4, active compounds read low
Hit rate of the full screen: of about 5,500 compounds, about 2,000 (36%) were called active. Inconclusive results (about 18%) are left out. This is one part of the list.
Answer field: number only, no words.

Sample records with normalized growth:
Qu. For the compound shown here, CC(=O)O[C@H]1CC[C@@]2(C)C(CC[C@]3(C)C2C(=O)C=C2C4[C@@H](C)[C@H](C)CC[C@]4(C(=O)O)CC[C@]23C)C1(C)C (stereo not given in full) , give the reported normalized growth.
Ans. 1.01

Qu. Cool, now CC(=O)O[C@H]1CC[C@@]2(C)C(CC[C@]3(C)C2CC=C2C4CC(C)(C)CC[C@]4(C)CC[C@]23C)C1(C)C (stereo not given in full)
Ans. 1.03

Qu. Cool, now C[C@@H]1OC(O[C@H]2[C@H](O)[C@@H](O)[C@H](OC[C@H]3O[C@@H](OC(=O)[C@]45CCC(C)(C)CC4C4=CCC6[C@@]7(C)CC[C@H](OC8OC[C@H](O)[C@H](O)[C@H]8OC8O[C@@H](C)[C@H](O)[C@@H](O)[C@H]8O)[C@@](C)(CO)C7CC[C@@]6(C)[C@]4(C)CC5)[C@H](O)[C@@H](O)[C@@H]3O)O[C@@H]2CO)[C@H](O)[C@H](O)[C@H]1O (stereo not given in full)
Ans. 0.993

Qu. Cool, now CC(=O)OC1CC(OC(C)=O)C2(C)C(CC(OC(C)=O)C3(C)C4=CC(=O)OC(=O)C4(C)CCC32)C1(C)C (stereo not given)
Ans. 1.01

Note: attention shifts to another entry.
Qu. For the compound shown here, CC1(C)CC[C@]2(C(=O)O)CC[C@]3(C)C(=CCC4[C@@]5(C)CC[C@H](O)[C@@](C)(CO)C5CC[C@]43C)C2C1 (stereo not given in full) , give the reported normalized growth.
Ans. 0.992

---

// reported normalized growth per item
Assay: chemical genetic growth profiling, strain panel (AID 1159580);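 further: tested at 20 µM; growth read once vehicle control cultures reached saturation at 30 °C; 1 = growth at the plate median or of vehicle wells; lower values mean less growth of the strain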
Conditions: S. cerevisiae deletion strains, growth OD, locus YJL095W, strain BCK1 (second series), active compounds read low
Among all 5,500 compounds or so, about 2,000 (36%) were called active. Another 18% or so got no clear call; they are omitted. This is one part of the list.
Answer field: number only, no words.

Qu. For the compound shown here, `CCCOc1ccccc1-c1nc2n[nH]nc2c(=O)[nH]1` , give the reported normalized growth.
Ans. 1.01

Qu. Cool, now `Cc1cc(O)cc(O)c1C(=O)O`
Ans. 1.02

Qu. Cool, now `CCCCCCCCCCCC[C@H](C(=O)O)[C@@H](C)C(=O)O`
Ans. 0.992

Qu. Cool, now `CNCc1ccccc1`
Ans. 1.02

Qu. Cool, now CC(=O)NC(C(=O)O)C(C)(C)SN=O (stereo not given)
Ans. 0.989

Next:
Qu. For the compound shown here, `Cc1cc(O)ccc1Cl` , give the reported normalized growth.
Ans. 1.01

Qu. Cool, now CC(=O)O[C@@H]1CC[C@@]2(C)C(CC[C@]3(C)C2CC=C2C4CC(C)(C)CC[C@]4(C(=O)O)CC[C@]23C)C1(C)C (stereo not given in full)
Ans. 0.966

Qu. Cool, now COC(=O)C[C@H]1C(C)(C)C(=O)[C@@H]2CC3C4=CC(=O)O[C@@H](c5ccoc5)[C@]4(C)CCC3[C@@]1(C)C2=O (stereo not given in full)
Ans. 0.983

Qu. Cool, now `Cc1cc(O)cc(C)c1Cl`
Ans. 0.951

Qu. Cool, now CC(CC(=O)C(O)C(C)(C)O)C1C(=O)CC2(C)C3=CCC4C(C)(C)C(OC5OCC(O)C(O)C5O)CCC45CC35C(O)CC12C (stereo not given)
Ans. 1.01

Qu. Cool, now `O=C(O)CC(O)(CC(=O)O)C(=O)O`
Ans. 1.02

Qu. Cool, now `Cc1ccc(N=CN(C)C=Nc2ccc(C)cc2C)c(C)c1`
Ans. 0.978

---

Test: chemical genetic growth profiling, strain panel (AID 1159580);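 further: tested at 20 µM; growth read once vehicle control cultures reached saturation at 30 °C; 1 = growth at the plate median or of vehicle wells; lower values mean less growth of the strain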
Conditions: S. cerevisiae deletion strains, growth OD, locus YGR052W, strain FMP48, active compounds read low
Screen size: about 5,500 compounds; about 2,000 (36%) were called active. Roughly 18% stayed inconclusive and do not appear here. This is one part of the list.
Measured attribute: normalized growth
Answer field: number only, no words.

Sample records with normalized growth:
Qu. For the molecule shown here, `Clc1cc(Cl)cc(-c2nc(SCc3ccc(Cl)cc3Cl)n[nH]2)c1` , give the reported normalized growth.
Ans. 0.937

Qu. Cool, now `Cc1nc(-c2ccccn2)nc(N(C)Cc2ccccc2)c1Cl`
Ans. 1.04

Qu. Cool, now `COC(=O)c1cnn(-c2c(Cl)cccc2Cl)c1C=C(C#N)C#N`
Ans. 0.93

Qu. Cool, now `Cc1nc(-c2ccccn2)[nH]c(=O)c1Cc1c(Cl)cccc1Cl`
Ans. 0.871

Qu. Cool, now `O=S(=O)(c1ccc(Cl)cc1)N(Cc1cccnc1)Cc1ccc(Cl)cc1Cl`
Ans. 0.543

Next:
Qu. For the molecule shown here, `COc1ccc2nc3ccccc3c(N)c2c1` , give the reported normalized growth.
Ans. 0.235

Qu. Cool, now `O=C(NCCNc1ncc(Cl)cc1C(F)(F)F)C(F)(F)Sc1ccccc1`
Ans. 1.14

Qu. Cool, now `Cc1nc(-c2ccccn2)nc(SCc2ccccc2)c1Cl`
Ans. 0.853

Qu. Cool, now CC(C)Cc1ccc(C(C)C(=O)Nc2nn(C)c3ccccc23)cc1 (centres undefined)
Ans. 0.983

Qu. Cool, now `OC1CCN(c2cc(C(F)(F)F)nc3cc(Cl)cc(Cl)c23)CC1`
Ans. 1.1

---

// reported normalized growth per item
Test: chemical genetic growth profiling, strain panel (AID 1159580);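 further: tested at 20 µM; growth read once vehicle control cultures reached saturation at 30 °C; 1 = growth at the plate median or of vehicle wells; lower values mean less growth of the strain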
Conditions: S. cerevisiae deletion strains, growth OD, locus YDL192W, strain arf1, active compounds read low
Screen size: about 5,500 compounds; about 2,000 (36%) were called active. Another 18% or so got no clear call; they are omitted. The list shows a part of the results.
Answer field: number only, no words.

Sample records with normalized growth:
Qu. For the compound shown here, COC(=O)C[C@H]1C(C)(C)C2(O)OC34CC2C(=O)[C@]1(C)C3CC[C@]1(C)C4=CC(=O)O[C@H]1c1ccoc1 (stereo partly specified) , give the reported normalized growth.
Ans. 1.01

Qu. Cool, now `CC(C)(C#N)O[C@@H]1O[C@H](CO)[C@@H](O)[C@H](O)[C@H]1O`
Ans. 0.988

Qu. Cool, now `Cc1cc(C(C)(C)C)c(O)c(C(C)(C)C)c1`
Ans. 0.969

Qu. Cool, now `NNC(=O)c1ccncc1`
Ans. 0.995

Qu. Cool, now O=C(O)/C=C1\CCCc2ccccc2C1O (stereo unspecified)
Ans. 0.977

Next:
Qu. For the compound shown here, CO[C@@]12[C@@H]3NC3CN1C1=C(C(=O)C(N)=C(C)C1=O)[C@@H]2COC(N)=O (stereo partly specified) , give the reported normalized growth.
Ans. 0.974

Qu. Cool, now `O=c1[nH]cc(F)c(=O)[nH]1`
Ans. 0.715

Qu. Cool, now `NC(N)=N/N=C/c1c(Cl)cccc1Cl`
Ans. 1.03

Qu. Cool, now `Nc1ccc(S(=O)(=O)Nc2cnc3ccccc3n2)cc1`
Ans. 0.973

Qu. Cool, now `CC(C)(Oc1ccc(CCNC(=O)c2ccc(Cl)cc2)cc1)C(=O)O`
Ans. 1.01

Qu. Cool, now COc1c(CC(=O)c2cc3c(cc2O)OC(C)(C)C(O)C3)ccc2c1C=CC(C)(C)O2 (stereo unspecified)
Ans. 0.96
